Numbers sourced from paper PMC10663500.

# measured.target: T1, mouse programmed cell death protein 1 Fc fusion protein (mPD-1-Fc), mPD-1 C60S (aa 25-167) (Mus musculus, UniProt Q02242, stabilised)
# T1 construct: not cleaved; source: Expi293F, purified (Protein A, SEC; dimeric fraction); not shown: Fc (human), C-terminal, kept
# protocol.description: SPR; Carterra LSA; Fab from the ammonium sulfate precipitate of the culture supernatant immobilised on a NiHC200M chip; hPD-1 (1-1024 nM) or mPD-1-Fc (4-1024 nM) as analyte, fourfold dilution series, no regeneration; HBS-EP pH 7.4, 25 °C; medians over the spots of a construct, KD = koff/kon
# test.parameters: one partner purified
measurement.name: Kd
Units required after the number.

GET /values?readout=Kd&item= toripalimab Fab L.V99L (Fab, V domains shown, as the heavy chain of Sm3; light chain of Sm3 with this change; numbers count from the chain's first residue; source: Brevibacillus, culture supernatant (ammonium sulfate precipitate); not shown: 6xHis, C-terminal, kept; 6xHN, C-terminal, kept) VH: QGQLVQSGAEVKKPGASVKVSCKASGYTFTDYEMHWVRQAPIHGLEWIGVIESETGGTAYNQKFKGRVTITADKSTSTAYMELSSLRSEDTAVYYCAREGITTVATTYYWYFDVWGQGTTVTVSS VL: DVVMTQSPLSLPVTLGQPASISCRSSQSIVHSNGNTYLEWYLQKPGQSPQLLIYKVSNRFSGVPDRFSGSGSGTDFTLKISRVEAEDVGVYYCFQGSHLPLTFGQGTKLEIK
407 nM

GET /values?readout=Kd&item= toripalimab Fab L.P100Y (Fab, V domains shown, as the heavy chain of Sm3; light chain of Sm3 with this change; numbers count from the chain's first residue; source: Brevibacillus, culture supernatant (ammonium sulfate precipitate); not shown: 6xHis, C-terminal, kept; 6xHN, C-terminal, kept) VH: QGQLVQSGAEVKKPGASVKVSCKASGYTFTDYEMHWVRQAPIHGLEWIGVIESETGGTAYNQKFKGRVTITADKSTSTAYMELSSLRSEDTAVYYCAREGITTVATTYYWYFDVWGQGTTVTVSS VL: DVVMTQSPLSLPVTLGQPASISCRSSQSIVHSNGNTYLEWYLQKPGQSPQLLIYKVSNRFSGVPDRFSGSGSGTDFTLKISRVEAEDVGVYYCFQGSHVYLTFGQGTKLEIK
1.79 nM

GET /values?readout=Kd&item= toripalimab Fab H.G56Y (Fab, V domains shown, heavy chain of Sm3 with this change; numbers count from the chain's first residue; as the light chain of Sm3; source: Brevibacillus, culture supernatant (ammonium sulfate precipitate); not shown: 6xHis, C-terminal, kept; 6xHN, C-terminal, kept) VH: QGQLVQSGAEVKKPGASVKVSCKASGYTFTDYEMHWVRQAPIHGLEWIGVIESETYGTAYNQKFKGRVTITADKSTSTAYMELSSLRSEDTAVYYCAREGITTVATTYYWYFDVWGQGTTVTVSS VL: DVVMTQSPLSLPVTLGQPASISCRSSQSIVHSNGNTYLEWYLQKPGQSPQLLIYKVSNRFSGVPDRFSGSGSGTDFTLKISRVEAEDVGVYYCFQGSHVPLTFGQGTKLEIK
502 nM
